- subject-of-test: Gastrin/cholecystokinin type B receptor (Homo sapiens, UniProt P32239)
- Sequence (P32239 whole entry): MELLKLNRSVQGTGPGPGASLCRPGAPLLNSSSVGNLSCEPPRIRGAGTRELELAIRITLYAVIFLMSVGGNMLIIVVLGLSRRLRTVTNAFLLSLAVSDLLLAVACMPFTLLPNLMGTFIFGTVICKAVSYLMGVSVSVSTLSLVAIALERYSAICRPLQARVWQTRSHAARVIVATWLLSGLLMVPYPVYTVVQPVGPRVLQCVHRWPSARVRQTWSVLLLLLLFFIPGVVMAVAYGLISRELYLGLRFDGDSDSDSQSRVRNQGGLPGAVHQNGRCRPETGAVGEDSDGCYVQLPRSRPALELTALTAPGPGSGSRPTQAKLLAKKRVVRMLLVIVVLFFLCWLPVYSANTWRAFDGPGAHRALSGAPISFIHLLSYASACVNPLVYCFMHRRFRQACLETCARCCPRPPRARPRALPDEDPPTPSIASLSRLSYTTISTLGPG
- assay-notes: Binding affinity against human Cholecystokinin type B receptor in CHO-K1 cells using [125I]-Bolton-Hunter CCK-8 as radioligand
Give measured pIC50 for each item. Keep answers brief.
One number for each entry, as −log10 of the molar value.

Please give pIC50 for each item listed below.
1. CC(C)N(C(=O)CN1C(=O)C(CC(=O)Nc2ccccc2)(Cc2ccccc2)C(=O)N(c2ccccc2)c2ccccc21)c1ccccc1 (stereo not given)
2. CC(C)N(C(=O)CN1C(=O)C(CC(=O)Nc2ccccc2)C(=O)N(c2ccccc2)c2ccccc21)c1ccccc1 (stereo not given)
3. CCC1(CC(=O)Nc2ccccc2)C(=O)N(CC(=O)N(c2ccccc2)C(C)C)c2ccccc2N(c2ccccc2)C1=O (stereo not given)
4. CC(C)N(C(=O)CN1C(=O)C(C)(CC(=O)Nc2ccccc2)C(=O)N(c2ccccc2)c2ccccc21)c1ccccc1 (stereo not given)

1. 5.05
2. 6.08
3. 6.10
4. 5.08

Look up pIC50 of CC(C)N(C(=O)CN1C(=O)C(C)(NC(=O)Nc2ccccc2)C(=O)N(c2ccccc2)c2ccccc21)c1ccccc1 (stereo not given) and report it.
6.55

====

- subject-of-test: Cholecystokinin receptor type A (Homo sapiens, UniProt P32238)
- Sequence (P32238 whole entry): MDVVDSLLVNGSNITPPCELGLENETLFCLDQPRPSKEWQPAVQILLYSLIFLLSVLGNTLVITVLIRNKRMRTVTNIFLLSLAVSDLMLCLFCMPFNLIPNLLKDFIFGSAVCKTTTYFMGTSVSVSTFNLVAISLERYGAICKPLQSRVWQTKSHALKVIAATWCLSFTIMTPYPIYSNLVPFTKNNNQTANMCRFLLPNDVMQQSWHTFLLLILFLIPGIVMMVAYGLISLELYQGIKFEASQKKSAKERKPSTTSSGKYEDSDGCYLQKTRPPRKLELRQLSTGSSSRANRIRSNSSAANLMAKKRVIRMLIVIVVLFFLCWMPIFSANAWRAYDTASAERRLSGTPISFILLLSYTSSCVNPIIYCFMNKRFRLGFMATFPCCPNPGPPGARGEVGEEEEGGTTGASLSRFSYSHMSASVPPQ
- assay-notes: Binding affinity against human Cholecystokinin type A receptor in membrane preparation isolated from CHO-K1 cells stably transfected with cDNA of human CCK-A using [125I]-Bolton-Hunter CCK-8 as radioligand
measured-attribute: IC50 (nM)
Give bare numbers, in nM.

- compound: "CC(C)N(C(=O)CN1C(=O)C(CC(=O)Nc2ccccc2)(Cc2ccccc2)C(=O)N(c2ccccc2)c2ccccc21)c1ccccc1 (stereo not drawn)"
  unit-of-measurement: "nM"
  IC50: 389
- compound: "CC(C)N(C(=O)CN1C(=O)C(C)(CC(=O)Nc2ccccc2)C(=O)N(c2ccccc2)c2ccccc21)c1ccccc1 (stereo not drawn)"
  unit-of-measurement: "nM"
  IC50: 75.9

Tell me its IC50 given CC(C)N(C(=O)CN1C(=O)C(CC(=O)Nc2ccccc2)C(=O)N(c2ccccc2)c2ccccc21)c1ccccc1 (stereo not drawn) as the entry.
155

====

- subject-of-test: Cholecystokinin receptor type A (Cavia porcellus) (UniProt Q63931)
- Sequence (whole entry): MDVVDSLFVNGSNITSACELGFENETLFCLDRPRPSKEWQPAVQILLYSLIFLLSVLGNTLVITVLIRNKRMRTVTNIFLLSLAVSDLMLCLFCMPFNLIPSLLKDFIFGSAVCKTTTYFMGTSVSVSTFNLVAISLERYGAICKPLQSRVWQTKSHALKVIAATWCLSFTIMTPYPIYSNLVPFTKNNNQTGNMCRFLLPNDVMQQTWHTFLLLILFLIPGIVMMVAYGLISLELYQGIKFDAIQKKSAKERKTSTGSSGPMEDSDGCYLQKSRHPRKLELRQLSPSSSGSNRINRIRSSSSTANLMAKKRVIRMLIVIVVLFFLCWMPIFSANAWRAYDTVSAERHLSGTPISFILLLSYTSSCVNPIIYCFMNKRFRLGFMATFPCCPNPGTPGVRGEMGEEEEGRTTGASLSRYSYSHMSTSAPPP
- assay-notes: In vitro agonist activity against Cholecystokinin type A receptor isolated from guinea pig gall bladder.
- Format: functional, tissue-based
measured-attribute: ED50 (µM)
Give bare numbers, in µM.

Before answering, review these 3 worked examples.
- compound: "CSCC[C@H](NC(=O)[C@H](Cc1ccc(OS(=O)(=O)O)cc1)NC(=O)[C@@H](N)CC(=O)O)C(=O)NCC(=O)N[C@@H](Cc1c[nH]c2ccccc12)C(=O)N[C@@H](CCSC)C(=O)N[C@@H](CC(=O)O)C(=O)N[C@@H](Cc1ccccc1)C(N)=O [SINCALIDE]"
  subject-of-test: "Cholecystokinin receptor type A (Cavia porcellus) (UniProt Q63931)"
  ED50 (µM): 0.002
- compound: "CCC1(CC(=O)Nc2ccccc2)C(=O)N(CC(=O)N(c2ccccc2)C(C)C)c2ccccc2N(c2ccccc2)C1=O (stereo unspecified)"
  subject-of-test: "Cholecystokinin receptor type A (Cavia porcellus) (UniProt Q63931)"
  ED50 (µM): 0.78
- compound: "CC(C)N(C(=O)CN1C(=O)C(C)(CC(=O)Nc2ccccc2)C(=O)N(c2ccccc2)c2ccccc21)c1ccccc1 (stereo unspecified)"
  subject-of-test: "Cholecystokinin receptor type A (Cavia porcellus) (UniProt Q63931)"
  ED50 (µM): 0.2

Quick request: ED50 for each listed item, please.
1. CC(C)N(C(=O)CN1C(=O)C(NC(=O)Nc2ccccc2)C(=O)N(c2ccccc2)c2ccccc21)c1ccccc1 (stereo unspecified)
2. CC(C)N(C(=O)CN1C(=O)C(CC(=O)Nc2ccccc2)C(=O)N(c2ccccc2)c2ccccc21)c1ccccc1 (stereo unspecified)

[1.6, 0.43]

These data points were gathered from ChEMBL document CHEMBL1129254.
